experiment: Toxicokinetics after topical application on full-thickness wounds in minipigs; type: in vivo, Gottingen SPF minipigs; conditions: Gottingen SPF, minipig, plasma, topical or ocular, 2000 ug/day; Female minipigs, topical 2000 μg/day (500 μg/g Gel), Day 6; read-out: Cmax (Mean ± CV)
measured.endpoint: Cmax (ng/mL)

molecule	test.value
Nc1nc(OCCc2ccc(Cl)cc2)nc2c1ncn2[C@@H]1O[C@H](CO)[C@@H](O)[C@H]1O [2-[2-(4-chlorophenyl)ethoxy]adenosine]	0.45

----------
experiment: Toxicokinetics after topical application on full-thickness wounds in minipigs; format: in vivo, Gottingen SPF minipigs; settings: Gottingen SPF, minipig, plasma, topical or ocular, 2000 ug/day; Male minipigs, topical 2000 μg/day (500 μg/g Gel), Day 6; read-out: AUC24 h (Mean ± CV)

molecule	AUC(0-t)
Nc1nc(OCCc2ccc(Cl)cc2)nc2c1ncn2[C@@H]1O[C@H](CO)[C@@H](O)[C@H]1O [2-[2-(4-chlorophenyl)ethoxy]adenosine]	7.25 ng·h/mL

----------
assay: Toxicokinetics after topical application on full-thickness wounds in minipigs; assay type: in vivo, Gottingen SPF minipigs; conditions: Gottingen SPF, minipig, plasma, topical or ocular, 2000 ug/day; Male minipigs, topical 2000 μg/day (500 μg/g Gel), Day 6; read-out: T1/2 (Mean ± CV) (converted)

compound	half-life / h
Nc1nc(OCCc2ccc(Cl)cc2)nc2c1ncn2[C@@H]1O[C@H](CO)[C@@H](O)[C@H]1O [2-[2-(4-chlorophenyl)ethoxy]adenosine]	122

----------
test: Toxicokinetics after topical application on full-thickness wounds in minipigs; format: in vivo, Gottingen SPF minipigs; details: Gottingen SPF, minipig, plasma, topical or ocular, 2000 ug/day; Male minipigs, topical 2000 μg/day (500 μg/g Gel), Day 6; read-out: Tmax (Mean ± CV)

molecule	unit.abbreviation	Tmax
Nc1nc(OCCc2ccc(Cl)cc2)nc2c1ncn2[C@@H]1O[C@H](CO)[C@@H](O)[C@H]1O [2-[2-(4-chlorophenyl)ethoxy]adenosine]	h	7.8
